Experiment: qHTS Assay for Lipid Storage Modulators (AID 1519)
Conditions: Drosophila S3 cells, BODIPY lipid droplet/cell ratio, laser cytometry; measured here: lipid channel max response; cells loaded with oleic acid
Description: NIH Molecular Libraries Probe Production Centers Network [MLPCN] NIH Chemical Genomics Center [NCGC] Assay Submitter (PI): Beller, Mathias; Max-Planck-Institut fur Biophysikalische Chemie […] We dispensed 4 uL of cells at 1.25 x 10^6 cells/mL into LoBase Aurora COC 1,536-well plates (black walled, clear bottom) with a bottle-valve solenoid-based dispenser (Aurora) to obtain 5,000 cells/well. […] The ratio of the total intensity in PMT channel 1 over total intensity of channel 3 was also calculated. […]
Inconclusive results are not listed.
Value Kind: max response (%)
One number for each entry, in %.

Known max response results, listed for orientation:
Molecule	Endpoint Value
c1ccc(N2CC[C@@]3(CCCNC3)C2)cc1	10.7
Clc1ccc([C@@H](OCCN2CCCCC2)c2ccccc2)cc1	-7.74
CC(N)[C@@H](O)c1ccccc1 (stereo not given in full)	28.2
CC(C)[C@@]1(NC(=O)[C@@H]2C[C@H]3c4cccc5[nH]cc(c45)C[C@@H]3N(C)C2)O[C@]2(O)[C@H]3CCCN3C(=O)CN2C1=O	10.3

Consider the additional molecule presented here.
Fill in max response for record Oc1ccc2c3c1O[C@H]1[C@@H](O)CC[C@]4(O)[C@H](C2)N(CC2CCC2)CC[C@@]314
0.408
